- METHOD NOTES: In vivo pharmacokinetics, brain and plasma levels
- Design: species or system mouse
- TEST CONDITIONS: after SQ injection or oral delivery
ENDPOINT NAME: brain levels (ng/g)

• CCC(COC)n1nnc2c(Nc3ccc(OC)cc3C)nc(C)nc21 (stereo not shown) = 55

###

- TESTED ON: UniProt:P34998
- Sequence (P34998 24-415): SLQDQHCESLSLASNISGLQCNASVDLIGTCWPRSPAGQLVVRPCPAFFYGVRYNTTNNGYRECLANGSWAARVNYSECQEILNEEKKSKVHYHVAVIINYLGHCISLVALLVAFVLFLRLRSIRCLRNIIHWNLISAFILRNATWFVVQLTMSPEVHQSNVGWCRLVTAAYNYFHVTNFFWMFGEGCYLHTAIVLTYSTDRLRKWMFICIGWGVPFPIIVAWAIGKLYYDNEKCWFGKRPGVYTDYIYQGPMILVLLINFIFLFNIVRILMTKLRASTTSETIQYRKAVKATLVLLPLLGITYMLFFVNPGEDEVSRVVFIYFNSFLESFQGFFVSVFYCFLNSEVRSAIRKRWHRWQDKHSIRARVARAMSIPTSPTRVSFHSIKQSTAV
- METHOD NOTES: CRF1 binding (Ki)
- TEST CONDITIONS: read-out: CRF-1 antagonist Ki
ENDPOINT NAME: Ki

• CCC(COC)n1nnc2c(Nc3ccc(OC)cc3C)nc(C)cc21 (stereo not shown) = ~7.9 nM

###

- METHOD NOTES: PAMPA
- Type: in vitro ADME
- TEST CONDITIONS: Tertiary
Classify as follows. Reported PAMPA greater than or equal to 0.8: met. Reported PAMPA below: not met.

* CCC(COC)n1nnc2c(N(C)C3CCOCC3)nc(C)nc21 (centres unmarked) | not met
* CCC(COC)n1nnc2c(Nc3ccc(F)cc3F)nc(C)nc21 (centres unmarked) | not met
* CCC(COC)n1nnc2c(N(C)c3c(C)cc(C)cc3C)nc(C)nc21 (centres unmarked) | met
* CCC(COC)n1nnc2c(Nc3ccc(Cl)cc3C)nc(C)nc21 (centres unmarked) | met
* CCC(COC)n1nnc2c(Nc3ccc(OC)cc3C)nc(C)cc21 (centres unmarked) | met
* CCC(COC)n1nnc2c(N(C)C3CC3)nc(C)nc21 (centres unmarked) | met
* CCC(COC)n1nnc2c(Nc3ccc(C)cc3C)nc(C)nc21 (centres unmarked) | met
* CCC(COC)n1nnc2c(N3CC(C)CC(C)C3)nc(C)nc21 (centres unmarked) | met
* CCC(COC)n1nnc2c(Nc3ccc(OC)cc3C)nc(C)nc21 (centres unmarked) | not met
* CCC(COC)Nc1nc(C)nc2c1nnn2-c1ccc(Cl)cc1C (centres unmarked) | not met
* CCC(COC)Nc1nc(C)nc2c1nnn2-c1ccc(OC)cc1C (centres unmarked) | not met
